TEST SYSTEM: Mannose-6-phosphate isomerase (Homo sapiens) (UniProt P34949)
Sequence (P34949 whole entry, looked up): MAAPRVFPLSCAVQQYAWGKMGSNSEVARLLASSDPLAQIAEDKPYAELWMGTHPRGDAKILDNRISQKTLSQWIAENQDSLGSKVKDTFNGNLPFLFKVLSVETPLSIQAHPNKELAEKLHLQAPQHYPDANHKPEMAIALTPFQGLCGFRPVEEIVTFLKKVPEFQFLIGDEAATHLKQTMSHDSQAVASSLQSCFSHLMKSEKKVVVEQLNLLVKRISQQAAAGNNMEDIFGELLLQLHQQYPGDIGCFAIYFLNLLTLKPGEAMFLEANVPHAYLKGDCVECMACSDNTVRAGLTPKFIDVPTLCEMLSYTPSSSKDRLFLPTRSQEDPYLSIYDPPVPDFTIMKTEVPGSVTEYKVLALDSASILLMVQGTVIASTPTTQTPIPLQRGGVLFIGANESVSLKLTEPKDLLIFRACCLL
METHOD DESCRIPTION: inhibitors of human PMI, primary screen, biochemical, fluorescence intensity, coupled assay (AID 1209);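 further: plate controls were DMSO vehicle for no effect and wells lacking substrate for full effect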
MEASUREMENT PARAMETERS: purified PMI enzyme, at 20 µM, hits give high values
The whole screen tested about 190,000 compounds, of which about 810 (0.43%) were called active. Many of the other results were omitted from the sample, so actives are more common in it than they were.
Can you tell me inhibition for the items I'm about to list?
Numbers only, in %.

Parameters: items (list). Returns: inhibition for each item.
1. Cc1sc(NC(=S)NC(=O)c2ccco2)c(C(N)=O)c1C
2. COc1cccc(C2C(C(=O)Nc3nc4ccccc4s3)=C(C)NC3=C2C(=O)CC(C)(C)C3)c1OC (stereo unspecified)
3. CCOC(=O)c1c(NC(=O)Nc2ccccc2)sc(C)c1C
4. NC(=O)c1c(NC(=S)Nc2ccc(F)cc2)sc2c1CCCC2
5. Cc1sc(NC(=S)Nc2ccc(F)cc2)c(C(N)=O)c1C
6. Cc1sc(NC(=S)NC(=O)c2ccco2)c(C#N)c1C

50.4
-10.5
12.6
18.7
51.8
4.5

----------
TEST SYSTEM: Mannose-6-phosphate isomerase (Homo sapiens) (UniProt P34949)
METHOD DESCRIPTION: inhibitors of human PMI, primary screen, biochemical, fluorescence intensity, coupled assay (AID 1209)
MEASUREMENT PARAMETERS: purified PMI enzyme, at 20 µM, hits give high values
Screen size: about 190,000 compounds; about 810 (0.43%) were called active. The sample as a whole holds a higher share of actives than the screen did.
Mark T for reported inhibition of 10% or greater; mark F for anything smaller.

Reference set, count: 5
Form field: inhibition at least 10%? Entry: `Cc1c(Cc2ccc3c(c2)OCO3)sc(NC(=O)c2ccc3ccccc3c2)c1C(N)=O`
T

Please indicate if the recorded inhibition for `Fc1ccccc1NC(=S)Nc1cccc2cnccc12` meets or exceeds 10%.
T

Threshold query (inhibition >= 10%) on NC(N)=Nc1nc(C2COc3ccccc3O2)cs1 (centres undefined)
F

Say whether `COC1=C(OC)C(=O)C(CCCCCCCCCCO)=C(C)C1=O` shows inhibition of 10% or more.
T

Identify whether the reported inhibition of the following molecule is 10% or greater: `CCN1/C(=C/c2cc[n+](C)cc2)C=Cc2cc(C)ccc21`
T

Continuing:
Does the reported inhibition for CC1CCCN(C(=S)SCC(=O)c2cc(Br)cc(Br)c2O)C1 (centres undefined) fall at or above the 10% mark?
T

Form field: inhibition at least 10%? Entry: `COc1ccccc1NC(=S)Nc1cccc2cnccc12`
T

State whether the measured inhibition reaches 10%, counting equality as reaching it, for `C/C(=N\NC(=O)c1nn(C)c(C)c1Br)c1cccc(NC(=O)c2ccoc2C)c1`
F

Is inhibition at least 10%? Consider `O=C(O)CCC(=O)NNC(=O)CCC(=O)Nc1ccccc1`
T

Could you please find out whether CC1CCCN(C(=S)SCC(=O)O)C1 (centres undefined) has inhibition that meets 10% or exceeds it?
F

Please indicate if the recorded inhibition for `COc1cc(CNn2c(C)n[nH]c2=S)cc(Cl)c1OCc1ccccc1` meets or exceeds 10%.
T

Test whether the molecule `CC1=C(C)C(=O)C(CCCCC#CCCCC#CCO)=C(C)C1=O` records inhibition of 10% or higher.
F

Is the recorded value of inhibition equal to or greater than 10% for this molecule? `Cc1c(Cc2ccc3c(c2)OCO3)sc(NC(=O)c2ccccc2)c1C(N)=O`
F

Is inhibition at least 10%? Consider `CCOC(=O)c1c(C)c(C(=O)NCc2ccccc2OC)c(C)n1C`
T

Does the molecule `O=C(CN1CCCC1)Nc1cc(F)ccc1F` have recorded inhibition that is 10% or more?
F

# bool: inhibition of `C/C(=N\NC(=O)c1nn(C)c(C)c1Br)c1cccc(NC(=O)c2ccc(F)cc2)c1` >= 10%
T

Threshold query (inhibition >= 10%) on CN(CCC1CCOCC1)C(=O)CC1C(=O)NCCN1C/C=C/c1ccccc1 (centres undefined)
F

Assess whether reported inhibition for CCCCNC(c1ccccc1)c1ccncc1 (centres undefined) sits at 10% or higher.
F

Item `Cc1c(Cc2ccc3c(c2)OCO3)sc(NC(=O)c2cccc3ccccc23)c1C(N)=O` with inhibition of 10% or above?
T

Kindly determine if inhibition recorded for `C=CC[n+]1c(/C=C2\C=Cc3cc(C)ccc3N2CC)ccc2ccccc21` is above or exactly 10%.
T

----------
TEST SYSTEM: Mannose-6-phosphate isomerase (Homo sapiens) (UniProt P34949)
METHOD DESCRIPTION: inhibitors of human PMI, primary screen, biochemical, fluorescence intensity, coupled assay (AID 1209);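 further: plate controls were DMSO vehicle for no effect and wells lacking substrate for full effect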
MEASUREMENT PARAMETERS: purified PMI enzyme, at 20 µM, hits give high values
Hit rate of the full screen: of about 190,000 compounds, about 810 (0.43%) were called active. What follows is part of a selection rich in actives, with near analogues and random picks from the rest.
ENDPOINT NAME: inhibition (%)
One number for each entry, in %.

Illustrative cases are given below, each with its answer.
For the compound `O=C(Cc1c[nH]c2ccccc12)N1CCN(c2ccccc2)CC1` , what inhibition is on record?
-10.2

Fill in: inhibition of `O=C(CN1CCN(Cc2ccccc2)CC1)Nc1ccc(-n2cnnn2)cc1` is ___
-1.5

Param item = `CCc1cc(N2CCOCC2)cc2c1[nH]c1ccccc12` ; retrieve measured inhibition.
55.4

// query inhibition value for entry COc1ccccc1N1C(=O)CC(Sc2nc(C)cc(C)n2)C1=O (configuration not stated)
0.4

For `CCOC(=O)c1cccc(C(=O)OCC)n1` , what is its reported inhibition?
7.8

Look up inhibition for this compound: `FC(F)(F)c1cc(-c2ccc(Cl)cc2)nc2ncnn12`
-7.2

Tell me the measured inhibition of `CC1(C)Cc2ccccc2C2=NNC(=O)C2=N1` , please.
84

// returns reported inhibition for input `CC1(C)CC(=O)C(C2=NC(C)(C)Cc3ccccc32)=C(O)C1`
-4

Please state, for each entry, its recorded inhibition.
1. O=C(CN1CCN(c2ccc(F)cc2)CC1)Nc1ccc(-n2cnnn2)cc1
2. COC(=O)c1c(N2C(=O)CC(Sc3ccccc3C(=O)O)C2=O)sc(C)c1C (configuration not stated)

1. 3.3
2. -16.2

Fill in inhibition for each of the 2 compounds listed.
1. NS(=O)(=O)c1ccc(N/N=C/c2ccccc2Br)cc1
2. Clc1ccc(OCc2nnc(-c3ccccc3Br)o2)c(Cl)c1

1. 2
2. -0.9

----------
TEST SYSTEM: Mannose-6-phosphate isomerase (Homo sapiens)
METHOD DESCRIPTION: inhibitors of human PMI, primary screen, biochemical, fluorescence intensity, coupled assay (AID 1209);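 further: plate controls were DMSO vehicle for no effect and wells lacking substrate for full effect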
MEASUREMENT PARAMETERS: purified PMI enzyme, at 20 µM
The whole screen tested about 190,000 compounds, of which about 810 (0.43%) were called active. Cut-off read from the data, not from the text of the source: active = inhibition above about 50%; inactive = the rest. The sample holds actives, similar compounds and a random draw of the others, so the mix is not that of the screen.
The reply should be one of these categories: active, inactive

State the result this test recorded for `Nc1nc2c(s1)COc1ccccc1-2` .
inactive

Each molecule tested received a call. Report the one for `Cc1c(C)n(C(=O)CN2CCC(C(N)=O)CC2)c2ccccc12` .
inactive

Status in this test for `COc1ccc(-c2oc(NC(=O)CSc3nncn3C)c(C#N)c2-c2ccc(OC)cc2)cc1` ?
inactive

For this molecule, state the assay outcome: CC(C)CC(C(=O)NC1CCCCC1)N(Cc1cccs1)C(=O)c1snc(C(N)=O)c1N (stereo unspecified)
active

How did this test come out for `CC1(C)Cc2nc3sc4c(=O)n(Cc5ccccc5)cnc4c3cc2CS1` ?
inactive

How was Cc1ccccc1NC(=S)NC1CC2CCC(C1)N2Cc1ccco1 (stereo unspecified) classified in this test?
inactive

Look up the recorded call for COc1ccc(NC(C)=O)cc1NC(C)C(=O)Nc1ccc(F)c(F)c1F (stereo unspecified) in this test.
inactive

Which outcome was assigned to CC(C)CC(C(=O)NC1CCCC1)N(Cc1cccs1)C(=O)c1snc(C(N)=O)c1N (stereo unspecified) in this test?
inactive

Field: outcome | Entry: CC(C)NS(=O)(=O)c1ccc(OCC(=O)NC(C)c2ccccc2)cc1 (stereo unspecified)
inactive

Entry `Nc1nc(-c2ccccc2)c(-c2ccccc2)s1` : call = ?
inactive

Then there is this molecule:
Name the outcome recorded for CCOC(=O)CC(NC(=O)Cc1ccccc1)c1ccccc1Cl (stereo unspecified) in the assay.
inactive

----------
TEST SYSTEM: Mannose-6-phosphate isomerase (Homo sapiens)
METHOD DESCRIPTION: inhibitors of human PMI, primary screen, biochemical, fluorescence intensity, coupled assay (AID 1209);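 further: plate controls were DMSO vehicle for no effect and wells lacking substrate for full effect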
MEASUREMENT PARAMETERS: purified PMI enzyme, at 20 µM, hits give high values
Out of some 190,000 compounds screened, about 810 (0.43%) were called active. For the sample, actives were picked, then their nearest neighbours and some compounds at random.
Assignment: determine reported inhibition for the given compounds.
One number for each entry, in %.

Before answering, review these 2 worked examples.
Fill blank: measured inhibition of the compound `S=c1[nH]nc(C2CCCCC2)n1/N=C/c1ccco1` is ____.
-1.6

What value of inhibition has been reported for the following compound? `CC1=CC(C)(C)Nc2ccc(OC(=O)CN3C(=O)CCC3=O)cc21`
22

Provide inhibition values for the following items, in order.
1. COc1ccc(NC(=O)C2(c3ccccc3)CCCC2)cc1
2. O=C(NCc1ccccc1)C(c1cccs1)N(C(=O)c1csnn1)C1CC1 (stereo not given)

1. 18.9
2. 4.8

// for each compound below, give its inhibition
1. O=C1Nc2ccccc2C(O)(C(=O)NCc2ccco2)N1c1ccccc1 (stereo not given)
2. Cn1c(SCC(=O)N2CCOCC2)nnc1-c1cccc(NC(=O)c2ccccc2F)c1
3. Cc1cccc(NC(=O)CSc2nnc(-c3n[nH]c4ccccc34)o2)c1
4. CC1=CC(C)(C)Nc2ccc(OC(=O)CN3C(=O)c4cccc5cccc(c45)C3=O)cc21
5. CC1=CC(C)(C)Nc2ccc(OC(=O)CN3C(=O)c4ccccc4C3=O)cc21
6. COc1ccc(CNC(=O)C(c2cccs2)N(C(=O)c2csnn2)C2CC2)cc1 (stereo not given)

1. 1.5
2. 2.1
3. 17.6
4. 53.4
5. 16.6
6. 93

Hello, the source for this data is PubChem BioAssay AID1209, in case you need it.
